TARGET OF ASSAY: SIX1 homeodomain (reference allele) (human, UniProt Q15475 108-198)
Sequence: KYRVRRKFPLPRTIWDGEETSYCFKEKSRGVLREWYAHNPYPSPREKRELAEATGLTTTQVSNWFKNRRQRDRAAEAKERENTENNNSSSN
EXPERIMENTAL DETAILS: universal protein binding microarray; Universal all-10-mer PBM (8x60K, AMADID 030236), 300 nM GST-tagged protein, Alexa Fluor 488 anti-GST; buffer, salt, pH and temperature not stated (as in Berger); high values mean tight binding
STATED CONDITIONS: protein: ivt; tags: N-terminal GST; dsDNA, one strand shown
Over roughly 33,000 sequences, “e-score” has its median near -0.053; the highest 2% begin near 0.38. This excerpt belongs to a sample that is enriched for the highest values.
MEASURED ENDPOINT: binding signal (E-score)
Kindly provide the numeric value in E-score only, without the unit symbol.

SEQ	binding signal, E-score
GGCGGATA	0.403
TAAACTGA	0.158
GATATGCC	0.427
ATCCTTTC	0.212
GATCCCCC	0.47
AATCCCCC	0.261
TATAGGGA	0.206
ACGATATA	0.296

-- ask Recorded binding signal for CCGATAAC with SIX1 homeodomain (reference allele) (human, UniProt Q15475 108-198), please?
-- reply 0.239

-- ask Report binding signal for GATCCCGC tested on SIX1 homeodomain (reference allele) (human, UniProt Q15475 108-198).
-- reply 0.375

-- ask Any idea what binding signal came out for GATCGCCC on SIX1 homeodomain (reference allele) (human, UniProt Q15475 108-198)?
-- reply 0.379

-- ask Please tell me: binding signal of CCGCATCC , system SIX1 homeodomain (reference allele) (human, UniProt Q15475 108-198)?
-- reply 0.159

-- ask Find binding signal (SIX1 homeodomain (reference allele) (human, UniProt Q15475 108-198)) for the entry AACACCAT
-- reply 0.173

-- ask Give SIX1 homeodomain (reference allele) (human, UniProt Q15475 108-198) binding signal for AGGATAAT
-- reply 0.295

-- ask What is its binding signal for SIX1 homeodomain (reference allele) (human, UniProt Q15475 108-198)? Entry: CGGATAAA
-- reply 0.275

-- ask Checklist item: binding signal tested on SIX1 homeodomain (reference allele) (human, UniProt Q15475 108-198), entry ACACCGAC , value?
-- reply 0.256

-- ask GET /values?readout=binding signal&system=SIX1 homeodomain (reference allele) (human, UniProt Q15475 108-198)&item= AGGCATAT
-- reply 0.308

---

TARGET OF ASSAY: SIX1 homeodomain (reference allele) (human, UniProt Q15475 108-198)
Sequence: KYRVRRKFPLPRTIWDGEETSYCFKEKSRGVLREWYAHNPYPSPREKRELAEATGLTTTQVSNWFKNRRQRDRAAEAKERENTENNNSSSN
EXPERIMENTAL DETAILS: universal protein binding microarray; Universal all-10-mer PBM (8x60K, AMADID 030236), 300 nM GST-tagged protein, Alexa Fluor 488 anti-GST; buffer, salt, pH and temperature not stated (as in Berger); high values mean tight binding
STATED CONDITIONS: protein: ivt; tags: N-terminal GST; dsDNA, one strand shown
The full ranking holds about 33,000 sequences; the median of “e-score” is about -0.053, and the highest 2% start at about 0.38. This excerpt belongs to a sample that is enriched for the highest values.
Entry flag: TRUE if binding signal reaches 0.3 E-score; FALSE if it does not.

Completed entries (count: 5):
SEQ	TARGET OF ASSAY	ANSWER LABEL
ATCGGTGG	SIX1 homeodomain (reference allele) (human, UniProt Q15475 108-198)	FALSE
GATAATGC	SIX1 homeodomain (reference allele) (human, UniProt Q15475 108-198)	FALSE
ATACACAG	SIX1 homeodomain (reference allele) (human, UniProt Q15475 108-198)	FALSE
ATCCGATC	SIX1 homeodomain (reference allele) (human, UniProt Q15475 108-198)	TRUE
AATTGTAT	SIX1 homeodomain (reference allele) (human, UniProt Q15475 108-198)	FALSE

-- ask Hi, just wondering whether GAGTATCC shows binding signal of 0.3 E-score or higher.
-- reply TRUE

-- ask Item GATCGGTA with binding signal of 0.3 E-score or above?
-- reply TRUE

-- ask Given AACAATAT , state whether its binding signal is at least 0.3 E-score.
-- reply FALSE

-- ask Check the entry ATCTGTCC : does binding signal equal or exceed 0.3 E-score?
-- reply FALSE

-- ask Evaluate AGTATCTA : binding signal at minimum 0.3 E-score?
-- reply TRUE

-- ask Item ACACCTTA with binding signal of 0.3 E-score or above?
-- reply FALSE

-- ask Reported binding signal at or above 0.3 E-score? TAACGATA
-- reply TRUE
